protocol.notes: logP determination by HPLC on a reversed-phase column (C18)
Format: physicochemical
measurement.parameters: HPLC-MS method a), reversed-phase column (C18); Table I-T3
Hi there, I'd appreciate the recorded logP^a) for every entry that follows.
Give the figure only, with no unit attached.

logP^a) for CCc1cc(C(F)(C(F)(F)F)C(F)(F)F)cc(Cl)c1-n1cc(-c2ccc(Cl)c(C(=O)NC3CC3)c2)cn1 is 4.6

Query O=C(NC1CC1)c1cc(-c2cnn(-c3c(Cl)cc(C(F)(C(F)(F)F)C(F)(F)F)cc3C(F)(F)F)c2)ccc1Cl yields logP^a) of 4.4

The molecule CCc1cc(C(F)(C(F)(F)F)C(F)(F)F)cc(C)c1-n1cc(-c2cncc(C(=O)NC3CC3)c2)cn1 showed logP^a) equal to 3.4

logP^a) reported for this molecule O=C(NCCC(F)(F)F)c1cc(-c2cnn(-c3ccc(C(F)(C(F)(F)F)C(F)(F)F)cc3Cl)c2)ccc1Cl : 4.7

The reported measurements were obtained from patent US10150737B2.
